# SYSTEM UNDER TEST: Large T antigen (Simian virus 40) (UniProt P03070)
# Sequence (P03070 whole entry, looked up): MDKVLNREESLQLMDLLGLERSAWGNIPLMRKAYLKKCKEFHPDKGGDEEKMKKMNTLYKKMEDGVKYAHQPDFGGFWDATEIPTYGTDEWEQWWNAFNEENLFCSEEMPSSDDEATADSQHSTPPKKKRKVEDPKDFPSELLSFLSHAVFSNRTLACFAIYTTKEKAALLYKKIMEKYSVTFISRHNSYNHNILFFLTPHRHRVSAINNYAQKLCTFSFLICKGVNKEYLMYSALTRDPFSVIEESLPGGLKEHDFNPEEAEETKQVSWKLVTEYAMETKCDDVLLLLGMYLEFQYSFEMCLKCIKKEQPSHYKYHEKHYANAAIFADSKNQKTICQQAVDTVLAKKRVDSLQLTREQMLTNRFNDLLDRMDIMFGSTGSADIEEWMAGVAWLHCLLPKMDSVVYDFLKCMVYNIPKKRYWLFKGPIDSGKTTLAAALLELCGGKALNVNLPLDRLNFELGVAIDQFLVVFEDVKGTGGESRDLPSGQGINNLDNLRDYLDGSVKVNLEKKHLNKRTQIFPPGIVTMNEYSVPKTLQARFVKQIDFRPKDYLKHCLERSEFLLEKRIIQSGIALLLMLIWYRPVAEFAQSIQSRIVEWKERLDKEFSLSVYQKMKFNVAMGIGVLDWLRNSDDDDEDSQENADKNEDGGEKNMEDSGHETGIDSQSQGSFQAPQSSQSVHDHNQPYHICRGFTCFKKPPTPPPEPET
# TEST SUMMARY: SV40 large T antigen inhibitors, biochemical (AID 1903)
# CONDITION INFO: SV40 large T antigen ATPase/helicase inhibition assay; at 20 µM; active compounds read high
The whole screen tested about 310,000 compounds, of which about 1,200 (0.39%) were called active. A selection follows. Results with a measured potency or affinity are listed apart.
ASSAY ENDPOINT: inhibition (%)
Hi! Could you send only the number? It should be in %, unit omitted.

inhibition for `CCNC(=S)N/N=C/c1ccc(-c2ccccc2)o1` ?
9.76

inhibition for Cc1cccc(/C=C2\CCC(C3CCCC3)C2=O)c1 (stereo not drawn) ?
1.68

inhibition for `COc1ccc(-c2nc3cc(C)ccn3c2NC(=O)c2ccccc2OC)cc1` ?
9.33

inhibition for `COc1ccc(C(=O)C[n+]2cccc(C(N)=O)c2)cc1` ?
1.66

inhibition for `COC(=O)C1=C(C)N(Cc2ccco2)C(=O)/C1=C\c1ccc([N+](=O)[O-])cc1` ?
31.3

inhibition for `COc1ccc(S(=O)(=O)Nc2cccc(-c3ccc4nncn4n3)c2)c(OC)c1` ?
12.4

inhibition for `CSC1=NSC2=NC(=O)/C(=C/c3coc4ccc(O)cc4c3=O)C(=N)N12` ?
17.7

inhibition for `Cn1nccc1C(=O)N1CCC(Cc2ccccc2)CC1` ?
11.7

inhibition for `COCCn1c(=O)[nH]c2cc(C(=O)Nc3ccc(OC)c(Cl)c3)ccc2c1=O` ?
4.08

inhibition for O=S(=O)(NCC1CCCO1)c1ccc(Cl)cc1 (stereo not drawn) ?
1.99

inhibition for `CCSC1=NSC2=NC(=O)/C(=C\c3coc4ccccc4c3=O)C(=N)N12` ?
28.2

inhibition for `COc1ccc(-n2c(C)cc(/C=C3\SC(=S)N(Cc4ccco4)C3=O)c2C)cc1` ?
2.87

inhibition for CC(NS(=O)(=O)c1ccc(F)cc1)C(c1cccs1)N1CCOCC1 (stereo not drawn) ?
-5.54

inhibition for `CC(=O)Oc1ccc(-c2cccc(C(=O)Oc3ccccc3)c2)cc1` ?
-7.54

inhibition for `CN(/N=C/Cc1nnnn1-c1ccc(Cl)cc1)c1ccccc1` ?
12.9

inhibition for `O=C1ON=C(c2ccccc2)/C1=C/c1ccc(O)cc1` ?
48

inhibition for `Cc1ccc(S(=O)(=O)N(C)CC(=O)N2CCOCC2)cc1` ?
0.93

inhibition for `NNC(=O)c1ccccc1CO` ?
3.38

inhibition for `COC(=O)C1=C(C)N(Cc2ccco2)C(=O)/C1=C\c1ccc(N(C)C)cc1` ?
3.05

inhibition for COc1ccc(NC(=O)CC2C(=O)N(Cc3ccco3)C(=S)N2C(C)C)cc1 (stereo not drawn) ?
12

inhibition for `Cc1snc(S(=O)(=O)/C(C#N)=N/Nc2ccc(C(F)(F)F)cc2)c1C#N` ?
6.46

inhibition for `Cc1cc(C(=O)NCCC(c2ccccc2)c2ccccc2)c(C)o1` ?
8.32

inhibition for `CC1N(C)c2cccc3cccc(c23)N1C` ?
32.1

###

# SYSTEM UNDER TEST: Large T antigen (Simian virus 40)
# TEST SUMMARY: SV40 large T antigen inhibitors, biochemical (AID 1903)
# CONDITION INFO: SV40 large T antigen ATPase/helicase inhibition assay; at 20 µM; active compounds read high
Screen size: about 310,000 compounds; about 1,200 (0.39%) were called active. Not all results are given here. Results with a measured potency or affinity are listed apart.
Record form. Attribute: inhibition. Fill in for each entry.
Hi! Could you send only the number? It should be in %, unit omitted.

inhibition for `COc1ccc(/C=C2/SC(=S)N(CCCC(=O)Nc3ccc(O)cc3)C2=O)cc1` ?
5.12

inhibition for `COc1ccc(-c2nc(NC(=O)CSCCO)sc2C)cc1` ?
22.1

inhibition for `CCc1ccc(CNc2ccc(N3CCN(C(C)=O)CC3)cc2)cc1` ?
9.55

inhibition for CC(C)C(NS(=O)(=O)c1cccc2nsnc12)C(=O)Nc1nc2ccc(Cl)cc2s1 (stereo not given) ?
1.74

inhibition for `O=C(Oc1ccc(-c2cnc3ccccc3n2)cc1)c1cc([N+](=O)[O-])ccc1Cl` ?
7.12

inhibition for `Cc1ccc2nc(C)c(C)nc2c1N` ?
17.3

inhibition for `COc1ccc(/C=C/C(=O)OCC(=O)Nc2cc(S(=O)(=O)N(C)C)ccc2Cl)cc1` ?
3.97

inhibition for `COc1ccc2[nH]cc(C(=O)CN3CCCCC3)c2c1` ?
20.3

inhibition for `O=C(Nc1ccccc1)NC1(C(=O)N2CCC(O)CC2)CCCCC1` ?
4.76

inhibition for `COc1c(C)cccc1C(=O)Nc1ccc(OCC(=O)N2CCOCC2)cc1C` ?
14.7

inhibition for O=C(Nc1nccs1)C1CC=CCC1 (stereo not given) ?
2.9

inhibition for `Cc1ccc(N=C2NC(=O)/C(=C/C=C/c3ccco3)S2)cc1` ?
21.2

inhibition for `COC(=O)C1=C(C(=O)OC)[C@@H]2N(C)c3ccc(OC)cc3[C@@]23C[C@@H](C(=O)OC)N(C(=O)c2ccco2)C3=N1` ?
27.8

inhibition for `COc1ccc(CCNC(=O)Cn2cnc3scc(-c4ccccc4)c3c2=O)cc1OC` ?
5.46

inhibition for O=C(Nc1ccc(F)cc1)c1ccc(NC(=O)C2CCCO2)cc1 (stereo not given) ?
1.01

inhibition for `O=C1CCCC/C1=C/Nc1cccc(C(F)(F)F)c1` ?
18.4

inhibition for CC1CCCC(NC(=O)C2CCN(S(=O)(=O)c3cnc[nH]3)CC2)C1C (stereo not given) ?
10.4

inhibition for O=C(O)C(c1ccccc1)N1C(=O)/C(=C/c2cccs2)SC1=S (stereo not given) ?
19.8

inhibition for `O=C1/C(=C\c2ccc(O)cc2)SC(=S)N1Cc1ccccc1` ?
7.6

inhibition for `Cc1ccn(CCC(=O)Nc2ccc(-c3ccno3)cc2)n1` ?
10.3

inhibition for `CC(=O)N1CCN(c2ccc(NCc3ccc(C)cc3)cc2)CC1` ?
14.1

inhibition for `CC(=O)N1CCN(c2ccc(NCc3ccccc3)cc2)CC1` ?
8.55

inhibition for COc1cccc(/C=C2\SC(=S)N(C(Cc3ccccc3)C(=O)O)C2=O)c1 (stereo not given) ?
33.3

inhibition for `NC(=NCCc1c[nH]c2ccccc12)NS(=O)(=O)c1ccc(F)cc1` ?
-1.17

inhibition for `C=CCOc1c(CNc2cccc(C(=O)O)c2)cccc1OC` ?
9.77

inhibition for `COc1cc2c(cc1OC)CC(=O)N(C)CC2` ?
-0.375

inhibition for O=C(Nc1ccc(F)cc1)C1CCCO1 (stereo not given) ?
22.1

inhibition for COc1ccccc1CNC(=O)c1ccccc1C(=O)NC(CC(C)C)C(=O)NCc1ccccc1OC (stereo not given) ?
14

inhibition for `O=C(O)CCC(=O)c1cccc2ccccc12` ?
6.26

inhibition for CCOc1ccc(/C=C2/SC(=S)N(C(C(=O)O)c3ccccc3)C2=O)cc1OCC (stereo not given) ?
19

inhibition for `Cc1n[nH]c(C)c1S(=O)(=O)N1CCC(C(=O)Nc2cccc(F)c2)CC1` ?
4.04

inhibition for COc1ccc(/C=C2\SC(=S)N(C(Cc3ccccc3)C(=O)O)C2=O)cc1 (stereo not given) ?
-3.2

inhibition for Cc1ccc(-c2ccc(=O)n(CC(=O)NCCN3C(C)CCCC3C)n2)cc1 (stereo not given) ?
0.56

inhibition for `C=CCOc1ccccc1CNc1cccc(F)c1` ?
-2.23

inhibition for `O=C1C(=O)N(CCS(=O)(=O)c2ccccc2)c2ccc(F)cc21` ?
3.86

inhibition for `COc1cccc(CNc2ccc3[nH]c(=O)[nH]c3c2)c1OCc1ccccc1Cl` ?
37

inhibition for O=C1N=C(N2CCCC2C(=O)O)S/C1=C\c1ccco1 (stereo not given) ?
3.04

inhibition for `C/C(CC(=O)Nc1ccc2c(c1)OCCO2)=N\NC(=O)COc1cccc(C)c1` ?
6.15

inhibition for `Cc1ccc(C(=O)Nc2nc(=O)n(C(=O)c3ccccc3Cl)s2)cc1` ?
6.99

inhibition for `CC(=O)Nc1nnc(SCc2ccc(C(=O)Nc3ccccc3F)cc2)s1` ?
5.26

inhibition for `O=C(O)c1sccc1Oc1ccc(NS(=O)(=O)c2ccccc2)cc1` ?
9.58

inhibition for `CC(=O)Nc1cccc(-c2csc(NCc3ccco3)n2)c1` ?
13.3

inhibition for CCOC(=O)N1CCN(C(=O)CC(C)S(=O)(=O)c2cc3c(cc2C)NC(=O)CO3)CC1 (stereo not given) ?
6.54

inhibition for CCOc1ccc(-c2ccc3nnc(SCC(=O)NCC4CCCO4)n3n2)cc1 (stereo not given) ?
20.9

inhibition for O=C(Nc1ccc(Oc2ccc(NC(=O)C3CCCO3)cc2)cc1)C1CCCO1 (stereo not given) ?
5.21

###

# SYSTEM UNDER TEST: Large T antigen (Simian virus 40)
# TEST SUMMARY: SV40 large T antigen inhibitors, biochemical (AID 1903)
# CONDITION INFO: SV40 large T antigen ATPase/helicase inhibition assay; at 20 µM; active compounds read high
Among all 310,000 compounds or so, about 1,200 (0.39%) were called active. A selection follows. Results with a measured potency or affinity are listed apart.
ASSAY ENDPOINT: inhibition (%)
Hi! Could you send only the number? It should be in %, unit omitted.

Item: `Cc1ccc(C)c(OC(=O)c2cccnc2Cl)c1C` Test system: Large T antigen (Simian virus 40) Read-out: inhibition Value: ?
25.3

Item: `c1ccc(-n2nnnc2Cc2nnnn2-c2ccccc2)cc1` Test system: Large T antigen (Simian virus 40) Read-out: inhibition Value: ?
-7.53

Item: `Cc1c(C)c2cc(Cl)c(O)c(CN(C)C)c2oc1=O` Test system: Large T antigen (Simian virus 40) Read-out: inhibition Value: ?
6.8

Item: `O=C(CNC(=O)c1ccccc1F)OCC(=O)N1CCCCC1` Test system: Large T antigen (Simian virus 40) Read-out: inhibition Value: ?
7.93

Item: COc1ccc(C2c3sc(=O)[nH]c3SCC2C(N)=O)cc1 (configuration not stated) Test system: Large T antigen (Simian virus 40) Read-out: inhibition Value: ?
12.6

Item: `O=[N+]([O-])c1cc(/C=N\Nc2nc(-c3ccccc3)cs2)ccc1O` Test system: Large T antigen (Simian virus 40) Read-out: inhibition Value: ?
14.1

Item: `Cc1csc(N/N=C/c2ccc([N+](=O)[O-])cc2)n1` Test system: Large T antigen (Simian virus 40) Read-out: inhibition Value: ?
12

Item: `CC(=O)N(Cc1cccc(Br)c1)c1ccc(N2CCOCC2)c(Cl)c1` Test system: Large T antigen (Simian virus 40) Read-out: inhibition Value: ?
9.14

Item: `c1ccc(-c2nnnn2-c2ccccc2)cc1` Test system: Large T antigen (Simian virus 40) Read-out: inhibition Value: ?
12.4

Item: `Cc1csc(NC(=O)CS(=O)(=O)Cc2ccccc2)n1` Test system: Large T antigen (Simian virus 40) Read-out: inhibition Value: ?
0.95

Item: Cn1c(N)c(C(=O)COC(=O)CC2CC3CCC2C3)c(=O)n(C)c1=O (configuration not stated) Test system: Large T antigen (Simian virus 40) Read-out: inhibition Value: ?
12.6

Item: `CCn1cc(S(=O)(=O)CC(=O)N2CCc3ccccc32)c2ccccc21` Test system: Large T antigen (Simian virus 40) Read-out: inhibition Value: ?
16.3
